# Test: PK study in male Sprague-Dawley rats dosed once per day for five days, PO 1 mg/kg, 0.5% HPMC (Example 6)
# Assay type: in vivo
# Condition summary: male, Sprague-Dawley, rat, in vivo, po, 1 mg/kg, Sprague-Dawley rats, day 5 of daily PO 1 mg/kg, 0.5% HPMC suspension; individual animals; read-out: Cmax
Property measured: Cmax (ng/mL)
Respond numerically; units are ng/mL and should not be typed.

Reported Cmax for Cc1cc(Nc2cc(N)ncn2)c(=O)n2c1C(=O)NC21CCC2(CC2)CC1 [4ET-03-053] was 4150

###

# Test: PK study in male Sprague-Dawley rats, IV 0.5 mg/kg and PO 1 mg/kg in 10% DMA/PG (Example 5)
# Type: in vivo
# Condition summary: male, Sprague-Dawley, rat, in vivo, po, 1 mg/kg, AUClast
# Procedure: Example 5: PK study of 4ET-03-053 in male Sprague-Dawley rats with IV (0.5 mg kg; 10% DMI 15% EtOH 35% PG 40% NS) and PO (1 mg kg; 10% DMA PG) dosing In male Sprague-Dawley rats, following IV administration with 0.5 mg/kg 4ET-03-053, plasma concentrations declined in a multiphasic manner with an initial concentration (Co) of 1.24 ug/mL and a last measurable concentration (Clast) of 33.2 ng/mL at 24 h post dose. […]
Property measured: AUC(0-t) (ng·h/mL)
Respond numerically; units are ng·h/mL and should not be typed.

Reported AUC(0-t) for Cc1cc(Nc2cc(N)ncn2)c(=O)n2c1C(=O)NC21CCC2(CC2)CC1 was 6110
